# tested-system: acyl-CoA:cholesterol acyltransferase (ACAT)
# protocol-notes: in vitro ACAT inhibition (LAI): radiolabeled cholesterol oleate formed from radiolabeled oleic acid in rat liver microsomes
# Format: biochemical
# setup-conditions: concentration required to inhibit enzyme activity by 50%
# Procedure: The ability of representative compounds of the present invention to inhibit ACAT was measured using an in vitro test more fully described in Field FJ, Salone RG, Biochemica et Biophysica, 1982;712:557-570. The test assesses the ability of a test compound to inhibit the acylation of cholesterol by oleic acid by measuring the amount of radiolabeled cholesterol oleate formed from radiolabeled oleic acid in a tissue preparation containing rat liver microsomes.
observable: IC50 (µM)

# annotated cases, reported IC50 shown
compound: CC(C)c1cc(C(C)C)c(OCC(=O)NS(=O)(=O)Oc2c(C(C)C)cccc2C(C)C)c(C(C)C)c1
tested-system: acyl-CoA:cholesterol acyltransferase (ACAT)
observable: IC50
units-of-measure: µM
reported-value: 34
--
compound: CC(C)c1cc(C(C)C)c(C(F)C(=O)NS(=O)(=O)Oc2c(C(C)C)cccc2C(C)C)c(C(C)C)c1 (centres unmarked)
tested-system: acyl-CoA:cholesterol acyltransferase (ACAT)
observable: IC50
units-of-measure: µM
reported-value: 9.4
--
compound: CC(C)c1cccc(C(C)C)c1OS(=O)(=O)NC(=O)C(c1ccccc1)C1CCCC1 (centres unmarked)
tested-system: acyl-CoA:cholesterol acyltransferase (ACAT)
observable: IC50
units-of-measure: µM
reported-value: 7.2
--
compound: CC(C)c1cc(C(C)C)c(CC(=O)NS(=O)(=O)Oc2c(C(C)C)cccc2C(C)C)c(C(C)C)c1
tested-system: acyl-CoA:cholesterol acyltransferase (ACAT)
observable: IC50
units-of-measure: µM
reported-value: 12
--
compound: CC(C)c1cccc(C(C)C)c1OS(=O)(=O)NC(=O)C(c1ccccc1)c1ccccc1
tested-system: acyl-CoA:cholesterol acyltransferase (ACAT)
observable: IC50
units-of-measure: µM
reported-value: 12
--
compound: CCC(C(=O)NS(=O)(=O)Oc1c(C(C)C)cccc1C(C)C)c1ccccc1 (centres unmarked)
tested-system: acyl-CoA:cholesterol acyltransferase (ACAT)
observable: IC50
units-of-measure: µM
reported-value: 8.9
--
compound: CC(C)c1cccc(C(C)C)c1OS(=O)(=O)NC(=O)CC1CCCCC1
tested-system: acyl-CoA:cholesterol acyltransferase (ACAT)
observable: IC50
units-of-measure: µM
reported-value: 28
--
compound: CC(C)c1cccc(C(C)C)c1OS(=O)(=O)NC(=O)CC(c1ccccc1)c1ccccc1
tested-system: acyl-CoA:cholesterol acyltransferase (ACAT)
observable: IC50
units-of-measure: µM
reported-value: 25
--
compound: COc1ccc(OC)c(CC(=O)NS(=O)(=O)Oc2c(C(C)C)cccc2C(C)C)c1
tested-system: acyl-CoA:cholesterol acyltransferase (ACAT)
observable: IC50
units-of-measure: µM
reported-value: 36
--
compound: CC(C)c1cc(C(C)C)c(CC(=O)NS(=O)(=O)Oc2c(C(C)C)cc(C(C)C)cc2C(C)C)c(C(C)C)c1
tested-system: acyl-CoA:cholesterol acyltransferase (ACAT)
observable: IC50
units-of-measure: µM
reported-value: 21

1: CC(C)c1cccc(C(C)C)c1OS(=O)(=O)NC(=O)C(Br)c1ccccc1 (centres unmarked)
2: CC(C)c1cccc(C(C)C)c1OS(=O)(=O)NC(=O)C1(c2ccccc2)CCCC1
3: Cc1cc(C)c(CC(=O)NS(=O)(=O)Oc2c(C(C)C)cccc2C(C)C)c(C)c1
Rank descending by IC50. Present the labels in the sequence the task asks for.
1, 3, 2

P: CC(C)c1cccc(C(C)C)c1OS(=O)(=O)NC(=O)Cc1c(Cl)cccc1Cl
Q: CC(C)c1cccc(C(C)C)c1OS(=O)(=O)NC(=O)C(c1ccc(Cl)cc1)c1ccc(Cl)cc1
Sorting ascending by IC50, which comes first: P or Q ? Kindly give the label for the entry you pick.
Q
(Q: 8.9 µM, P: 33 µM)
